target-or-test-system: Recombinant STAT6 protein (STAT6(W123-T658)) (Homo sapiens)
Construct: Recombinant STAT6 protein (STAT6(W123-T658))
Sequence (P42226 123-658): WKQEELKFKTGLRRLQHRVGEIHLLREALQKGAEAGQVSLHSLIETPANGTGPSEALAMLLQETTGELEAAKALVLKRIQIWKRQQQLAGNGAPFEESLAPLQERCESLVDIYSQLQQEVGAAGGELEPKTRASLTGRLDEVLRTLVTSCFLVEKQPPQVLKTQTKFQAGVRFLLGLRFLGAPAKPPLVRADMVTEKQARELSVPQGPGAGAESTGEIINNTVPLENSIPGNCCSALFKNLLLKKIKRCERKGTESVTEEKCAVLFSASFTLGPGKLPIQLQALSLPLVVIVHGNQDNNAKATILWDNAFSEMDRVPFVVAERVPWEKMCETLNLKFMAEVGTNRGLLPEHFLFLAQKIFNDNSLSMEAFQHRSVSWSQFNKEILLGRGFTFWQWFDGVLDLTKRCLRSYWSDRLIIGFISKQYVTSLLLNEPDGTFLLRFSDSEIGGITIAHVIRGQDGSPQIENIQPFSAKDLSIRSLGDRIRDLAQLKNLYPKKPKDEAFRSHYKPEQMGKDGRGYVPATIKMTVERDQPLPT
assay-summary: STAT6 Fluorescence Polarization (FP) Assay
run-conditions: 250 nM STAT6(W123-T658), 2 nM 5-FAM-Ap[…]-NH2 probe, pH 7.4, 45-minute incubation at room temperature
recorded-endpoint: IC50

The following compounds each have a reported value; give each one's IC50.
1. O=C1CCC(c2ccc(OCC(=O)N3CCN(c4ccncc4C4CN(C(=O)[C@@H]5CC[C@@H]6C[C@H]7C[C@H]7C[C@H](NC(=O)c7cc8cc(C(F)(F)P(=O)(O)O)ccc8s7)C(=O)N65)C4)CC3)cc2)C(=O)N1 (stereo partly shown) [Compound 21]
2. N#CC1CN(C(=O)C2CCC3CC4CC4CC(NC(=O)c4cc5cc(C(F)(F)P(=O)(O)O)ccc5s4)C(=O)N32)CC1c1cccc(OCCCCOc2ccc(C3CCC(=O)NC3=O)cc2)c1 (stereo not shown) [Compound 3]
3. O=C1CCC(n2c(=O)[nH]c3cc(N4CCC(n5ccc([C@@H]6CN(C(=O)[C@@H]7CC[C@@H]8C[C@H]9C[C@H]9C[C@H](NC(=O)c9cc%10cc(C(F)(F)P(=O)(O)O)ccc%10s9)C(=O)N87)C7(CC7)C6)cc5=O)CC4)ccc32)C(=O)N1 (stereo partly shown) [Compound 19]
4. CN(CCOc1ccc(C2CCC(=O)NC2=O)cc1)c1ccncc1C1CN(C(=O)[C@@H]2CC[C@@H]3C[C@H]4C[C@H]4C[C@H](NC(=O)c4cc5cc(C(F)(F)P(=O)(O)O)ccc5s4)C(=O)N32)C1 (stereo partly shown) [Compound 11]

Result:
1. 3 to 30 µM
2. 0.3 to 3 µM
3. 0.3 to 3 µM
4. 3 to 30 µM
